Could you please report measured Ki for the items listed next?
TGT: E. coli Gyrase (Escherichia coli, UniProt P0AES6)
TEST_SUMMARY: DNA Gyrase ATPase assay (E. coli Gyrase Ki)
Assay type: biochemical

Qu. E. coli Gyrase (Escherichia coli, UniProt P0AES6) / Ki / CCNC(=O)Nc1nc2cc(/C(C)=C/C(=O)N(C)C)cc(-c3ncccc3F)c2[nH]1 [Compound I-8] : value?
Ans. 50 to 100 nM

Qu. Again, but for CCNC(=O)Nc1nc2cc(F)cc(-c3ncccn3)c2[nH]1 [Compound I-15]
Ans. < 50 nM

Qu. Input CCNC(=O)Nc1nc2cc(NCc3ccccn3)cc(-c3ncccn3)c2[nH]1 [Compound I-14]
Ans. 50 to 100 nM

Qu. And then CCNC(=O)Nc1nc2cc(/C(C)=C/C(=O)NC)cc(-c3ncccc3F)c2[nH]1 [Compound I-10] , what is it?
Ans. < 50 nM

Qu. Another compound to check: CCNC(=O)Nc1nc2cc(C(C)CC(=O)NC)cc(-c3ncccc3F)c2[nH]1 (stereo not shown) [Compound I-9]
Ans. > 100 nM

Qu. Next up: CCNC(=O)Nc1nc2cc(C#N)c(F)c(-n3cccn3)c2[nH]1 [Compound I-16]
Ans. < 50 nM

Qu. // same read-out, input: CCNC(=O)Nc1nc2cc(C(C)CC(=O)N(C)C)cc(-c3ncccc3F)c2[nH]1 (stereo not shown) [Compound I-19]
Ans. > 100 nM

Qu. Same question for CCNC(=O)Nc1nc2cc(C3CCN(Cc4ccccc4)C(=O)C3)cc(-n3cccn3)c2[nH]1 (stereo not shown) [Compound I-17] please.
Ans. > 100 nM

Qu. Same question, CCNC(=O)Nc1nc2cc(C3CCN(C)C(=O)C3)cc(-c3ncccc3F)c2[nH]1 (stereo not shown) [Compound I-13] this time
Ans. < 50 nM

Qu. Now the same for CCNC(=O)Nc1nc2cc(C3=CC(=O)N(Cc4ccccc4)CC3)cc(-n3cccn3)c2[nH]1 [Compound I-18]
Ans. < 50 nM
